Parameter: Kd. Scope: all listed entries.
Molecular target: T1, cynomolgus SIRPβ1v3 (XP_005568593) extracellular domain + His-tag (cynomolgus monkey)
T1 construct: SPR analyte; also called Cyno SIRPβ1v3 XP_005568593; cynoSIRPβ1v3; not shown: His-tag
T1 chain: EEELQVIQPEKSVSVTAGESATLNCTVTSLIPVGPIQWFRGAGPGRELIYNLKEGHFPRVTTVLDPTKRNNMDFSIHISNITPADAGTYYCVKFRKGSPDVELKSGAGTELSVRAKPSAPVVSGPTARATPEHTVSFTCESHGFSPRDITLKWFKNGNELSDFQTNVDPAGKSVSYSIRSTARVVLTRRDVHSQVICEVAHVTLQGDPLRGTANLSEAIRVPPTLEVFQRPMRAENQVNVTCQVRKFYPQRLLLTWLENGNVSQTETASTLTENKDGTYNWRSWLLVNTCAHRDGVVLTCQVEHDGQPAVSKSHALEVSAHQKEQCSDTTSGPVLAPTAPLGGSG
Assay: SPR, antibody captured, ECD-His analyte
// units = nM; emit number, no label

Example entries and their recorded answers appear below.
binder="Antibody E2 (antibody, human IgG1, kappa, L234A L235A, V domains shown) VH: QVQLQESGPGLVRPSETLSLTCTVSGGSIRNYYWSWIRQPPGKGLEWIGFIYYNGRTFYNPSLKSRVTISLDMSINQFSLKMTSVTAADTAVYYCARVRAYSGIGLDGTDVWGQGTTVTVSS VL: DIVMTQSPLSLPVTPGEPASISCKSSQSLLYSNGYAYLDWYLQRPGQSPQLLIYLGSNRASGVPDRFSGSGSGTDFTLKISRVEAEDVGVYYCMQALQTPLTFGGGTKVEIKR" reported_value=12.4
binder="Antibody E8 (antibody, human IgG1, kappa, L234A L235A, V domains shown) VH: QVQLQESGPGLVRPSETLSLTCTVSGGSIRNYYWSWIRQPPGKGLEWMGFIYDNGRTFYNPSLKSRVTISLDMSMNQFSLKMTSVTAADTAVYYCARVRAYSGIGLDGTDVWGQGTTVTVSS VL: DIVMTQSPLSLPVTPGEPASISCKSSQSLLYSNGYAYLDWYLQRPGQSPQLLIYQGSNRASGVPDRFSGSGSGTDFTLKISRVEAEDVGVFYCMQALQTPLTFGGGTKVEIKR" reported_value=10.8

Exercise: Which value of Kd has been reported for Antibody E16 (antibody, human IgG1, kappa, L234A L235A, V domains shown) VH: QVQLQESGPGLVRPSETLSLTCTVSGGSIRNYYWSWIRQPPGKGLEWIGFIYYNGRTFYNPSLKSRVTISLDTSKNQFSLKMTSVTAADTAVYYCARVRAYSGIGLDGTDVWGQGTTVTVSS VL: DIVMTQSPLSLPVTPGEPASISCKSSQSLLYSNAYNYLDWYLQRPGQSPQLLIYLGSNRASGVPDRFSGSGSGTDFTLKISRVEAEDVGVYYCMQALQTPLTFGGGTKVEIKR in the records?
Key: 30.3
